Below, each entry is listed alongside its reported Relative activity.
Species on record: Mus musculus
assay-comment: Relative CNS activity against reserpine hypothermia in mice relatived to TRH
Assay type: functional, Central nervous system
Give the figure by itself; no unit, no explanation.

// worked examples, Relative activity included
compound=NC(=O)[C@@H]1CCCN1C(=O)[C@@H](Cc1c[nH]cn1)NC(=O)[C@@H]1CSC(=O)N1 measurement=0.8
compound="C[C@@H]1SCC(C(=O)N[C@@H](Cc2c[nH]cn2)C(=O)N2CCC[C@@H]2C(N)=O)NC1=O (stereo partly specified)" measurement=17
compound=NC(=O)[C@H]1CCCN1C(=O)[C@H](Cc1c[nH]cn1)NC(=O)c1nc(O)nc(O)c1Br measurement=0.7

# return recorded Relative activity for entry CCCc1c(O)nc(O)nc1C(=O)N[C@@H](Cc1c[nH]cn1)C(=O)N1CCC[C@@H]1C(N)=O
0.8

# return recorded Relative activity for entry CCc1c(O)nc(O)nc1C(=O)N[C@@H](Cc1c[nH]cn1)C(=O)N1CCC[C@@H]1C(N)=O
0.09

# return recorded Relative activity for entry CC1SCC(C(=O)N[C@@H](Cc2c[nH]cn2)C(=O)N2CCC[C@@H]2C(N)=O)NC1=O (stereo partly specified)
83
